Here the recorded protein stability index is given for each entry.
B1: MYL5 (parent)
chain: FQFASIDVAGNLDYKALSYVITHG

variants of: B1; assay: protein stability index of a GFP-peptide fusion (GPS, HEK-293T) (PSI 1-6); higher = more stable; settings: c terminus: a fixed tail appended;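 further: lentivirally expressed fusions sorted by FACS into six bins by GFP to DsRed ratio, PSI derived from sequencing read proportions per bin multiplied by bin number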
Form field (numeric): enter value without unit.

Task item: protein stability index lookup needed for FQFASIDVAGNKDYKALSYVITHG [L12K] , thanks.
Reply: 1.98

Task item: // same read-out, input: KQFASIDVAGNLDYKALSYVITHG [F1K]
Reply: 1.27

Task item: // same read-out, input: SQFASIDVAGNLDYKALSYVITHG [F1S]
Reply: 1.18

Task item: // same read-out, input: FQFASICVAGNLDYKALSYVITHG [D7C]
Reply: 3.48

Task item: // same read-out, input: FQFASIDVAGNLDEKALSYVITHG [Y14E]
Reply: 1.25

Task item: // same read-out, input: FQFASIDCAGNLDYKALSYVITHG [V8C]
Reply: 2.11
